Data provenance is patent US9029508.

- target or test system: DLL4 (human, UniProt Q9NR61)
- Sequence (Q9NR61 27-524): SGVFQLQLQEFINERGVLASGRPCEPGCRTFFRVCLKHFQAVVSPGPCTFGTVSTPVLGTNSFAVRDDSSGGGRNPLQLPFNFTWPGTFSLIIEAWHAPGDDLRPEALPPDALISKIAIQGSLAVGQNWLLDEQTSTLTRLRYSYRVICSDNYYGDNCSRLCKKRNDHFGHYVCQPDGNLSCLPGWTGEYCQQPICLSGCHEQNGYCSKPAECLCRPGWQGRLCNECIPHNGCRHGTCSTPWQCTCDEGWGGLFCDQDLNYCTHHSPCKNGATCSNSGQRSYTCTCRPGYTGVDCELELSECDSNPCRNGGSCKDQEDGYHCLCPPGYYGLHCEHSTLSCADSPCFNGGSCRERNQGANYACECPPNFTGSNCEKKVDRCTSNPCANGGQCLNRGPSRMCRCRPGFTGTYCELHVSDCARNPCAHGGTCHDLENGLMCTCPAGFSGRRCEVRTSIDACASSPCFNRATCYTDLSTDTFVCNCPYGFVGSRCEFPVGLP
- assay summary: ELISA
measurement type: EC50 (nM)
Please give a number only; it is taken to be in nM.

DVD043 DLL4 arm (antibody, DVD-Ig inner) chain 1: EVQLVESGGGLVQPGGSLRLSCAASGFTFTDNWISWVRQAPGKGLEWVGYISPNSGFTYYADSVKGRFTISADTSKNTAYLQMNSLRAEDTAVYYCARDNFGGYFDYWGQGTLVTVSS chain 2: DIQMTQSPSSLSASVGDRVTITCRASQDVSTAVAWYQQKPGKAPKLLIYSASFLYSGVPSRFSGSGSGTDFTLTISSLQPEDFATTYYCQQSYTGTVTFGQGTKVEIKR    0.67
DVD477 DLL4 arm (antibody, DVD-Ig outer) chain 1: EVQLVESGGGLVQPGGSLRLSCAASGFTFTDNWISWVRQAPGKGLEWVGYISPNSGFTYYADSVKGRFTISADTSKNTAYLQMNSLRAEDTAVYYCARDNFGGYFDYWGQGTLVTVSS chain 2: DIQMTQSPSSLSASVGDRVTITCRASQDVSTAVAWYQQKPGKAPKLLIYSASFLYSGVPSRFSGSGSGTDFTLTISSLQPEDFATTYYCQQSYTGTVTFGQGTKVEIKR    0.69

# next binder below
Provide one value: measured EC50 of DVD476 DLL4 arm (antibody, DVD-Ig inner) chain 1: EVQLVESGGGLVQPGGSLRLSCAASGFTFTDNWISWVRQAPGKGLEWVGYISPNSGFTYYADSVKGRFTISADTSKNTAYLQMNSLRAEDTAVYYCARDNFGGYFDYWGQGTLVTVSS chain 2: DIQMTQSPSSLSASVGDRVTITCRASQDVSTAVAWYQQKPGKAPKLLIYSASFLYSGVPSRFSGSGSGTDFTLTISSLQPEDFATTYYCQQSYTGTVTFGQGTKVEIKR
0.3
